system: Plasmodium falciparum strain K1; experiment: microbe, parasite or virus in culture; conditions: strain K1
Structures can show the parent of a compound that is named as a salt. Starred links: 1 amine or outer side, 2 acyl side, 3 side chain; linkers in the order of their positions; H or OH if unused. Positions of bridges follow the written chain, without caps; N, C: chain ends. Non-standard residues stand in square brackets, D forms with d. Residues, ends and D or L forms follow the SMILES beside them. *: point of attachment. X1 = O=C([C@@H](C[C@@H]1C[C@H]1C(F)(F)F)N[*:1])[*:2]; X2 = C/C=C\[C@H]1C[C@@H](C(=O)[*:2])N([*:1])C1; Phe(3R-Me) = C[C@H](c1ccccc1)[C@H](N)C(=O)O; d(aThr) = C[C@@H](O)[C@@H](N)C(=O)O; Tfa = O=C(C(F)(F)F)*
Reported IC50 against Plasmodium falciparum strain K1 values for the following compounds.
Number first, unit second: that is the form wanted.

# COMPOUND, ENDPOINT_VALUE
rows = [
    ("C/C=C\\[C@H]1C[C@H]2C(=O)O[C@H](C)[C@@H](NC(=O)[C@H](C[C@@H]3C[C@H]3C(F)(F)F)NC(=O)c3ccc(Cl)n3O)C(=O)N[C@@H]([C@H](C)c3ccccc3)C(=O)N[C@H](C[C@@H]3C[C@H]3C(F)(F)F)C(=O)N[C@@H]([C@H](C)c3ccccc3)C(=O)N[C@@H]([C@@H](C)CC)C(=O)N2C1 [Compound 8a]", "0.183 µg/mL"),
]

Let us move to another entry and its IC50 against Plasmodium falciparum strain K1.
**Q:** Given the entry C/C=C\[C@H]1C[C@H]2C(=O)O[C@H](C)[C@@H](NC(=O)C(F)(F)F)C(=O)N[C@@H]([C@H](C)c3ccccc3)C(=O)N[C@H](C[C@@H]3C[C@H]3C(F)(F)F)C(=O)N[C@@H]([C@H](C)c3ccccc3)C(=O)N[C@@H]([C@@H](C)CC)C(=O)N2C1 [Compound 59] (Tfa-[d(aThr)][Phe(3R-Me)][X1][Phe(3R-Me)]I[X2]; ester 1-C) , report its measured IC50 against Plasmodium falciparum strain K1.
**A:** 0.265 µg/mL

---

Reported IC50 against Plasmodium falciparum strain K1 values for the following compounds.
system: Plasmodium falciparum strain K1; assay: microbe, parasite or virus in culture; conditions: strain K1
Starred links: 1 amine or outer side, 2 acyl side, 3 side chain; linkers in the order of their positions; H or OH if unused. Positions of bridges follow the written chain, without caps; N, C: chain ends. Non-standard residues stand in square brackets, D forms with d. Residues, ends and D or L forms follow the SMILES beside them. X1 = O=C([C@@H](C[C@@H]1C[C@H]1C(F)(F)F)N[*:1])[*:2]; X2 = C/C=C\[C@H]1C[C@@H](C(=O)[*:2])N([*:1])C1; Phe(3R-Me) = C[C@H](c1ccccc1)[C@H](N)C(=O)O; d(aThr) = C[C@@H](O)[C@@H](N)C(=O)O
All answers are understood in µg/mL, so give the number only.

**Q:** Given the entry C/C=C\[C@H]1C[C@H]2C(=O)NC[C@@H](NC(=O)OCc3ccc(C)cc3)C(=O)N[C@@H]([C@H](C)c3ccccc3)C(=O)N[C@H](C[C@@H]3C[C@H]3[N+](=O)[O-])C(=O)N[C@@H]([C@H](C)c3ccccc3)C(=O)N[C@@H]([C@@H](C)CC)C(=O)N2C1 , report its measured IC50 against Plasmodium falciparum strain K1.
**A:** 0.061

**Q:** Note, next up: C/C=C\[C@H]1C[C@H]2C(=O)O[C@H](C)[C@@H](NC(=O)OCc3ccc(C)cc3)C(=O)N[C@@H]([C@H](C)c3ccccc3)C(=O)N[C@H](C[C@@H]3C[C@H]3C(F)(F)F)C(=O)N[C@@H]([C@H](C)c3ccccc3)C(=O)N[C@@H]([C@@H](C)CC)C(=O)N2C1 [Compound 52a]
**A:** 0.042

**Q:** Note, next up: C/C=C\[C@H]1C[C@H]2C(=O)O[C@H](C)[C@@H](NC(C)=O)C(=O)N[C@@H]([C@H](C)c3ccccc3)C(=O)N[C@H](C[C@@H]3C[C@H]3C(F)(F)F)C(=O)N[C@@H]([C@H](C)c3ccccc3)C(=O)N[C@@H]([C@@H](C)CC)C(=O)N2C1 [Compound 58] (Ac-[d(aThr)][Phe(3R-Me)][X1][Phe(3R-Me)]I[X2]; ester 1-C)
**A:** 0.151

---

system: Leishmania donovani strain MHOM-ET-67/L82; assay: microbe, parasite or virus in culture
Structures can show the parent of a compound that is named as a salt. Starred links: 1 amine or outer side, 2 acyl side, 3 side chain; linkers in the order of their positions; H or OH if unused. Positions of bridges follow the written chain, without caps; N, C: chain ends. Non-standard residues stand in square brackets, D forms with d. Residues, ends and D or L forms follow the SMILES beside them. *: point of attachment. X1 = O=C([C@@H](C[C@@H]1C[C@H]1C(F)(F)F)N[*:1])[*:2]; X2 = C/C=C\[C@H]1C[C@@H](C(=O)[*:2])N([*:1])C1; Phe(3R-Me) = C[C@H](c1ccccc1)[C@H](N)C(=O)O; d(aThr) = C[C@@H](O)[C@@H](N)C(=O)O; Tfa = O=C(C(F)(F)F)*
Reported IC50 against Leishmania donovani strain MHOM-ET-67/L82 values for the following molecules.
All answers are understood in µg/mL, so give the number only.

Please review the entries below; each comes with its answer.
# MOLECULE, ENDPOINT_VALUE
measured = [
    ("C/C=C\\[C@H]1C[C@H]2C(=O)O[C@H](C)[C@@H](NC(=O)[C@H](C[C@@H]3C[C@H]3C(F)(F)F)NC(=O)c3ccc(Cl)n3O)C(=O)N[C@@H]([C@H](C)c3ccccc3)C(=O)N[C@H](C[C@@H]3C[C@H]3C(F)(F)F)C(=O)N[C@@H]([C@H](C)c3ccccc3)C(=O)N[C@@H]([C@@H](C)CC)C(=O)N2C1", 0.205),
    ("C/C=C\\[C@H]1C[C@H]2C(=O)O[C@H](C)[C@@H](NC(=O)OCc3ccc(C)cc3)C(=O)N[C@@H]([C@H](C)c3ccccc3)C(=O)N[C@H](C[C@@H]3C[C@H]3C(F)(F)F)C(=O)N[C@@H]([C@H](C)c3ccccc3)C(=O)N[C@@H]([C@@H](C)CC)C(=O)N2C1 [Compound 52a]", 2.13),
    ("C/C=C\\[C@H]1C[C@H]2C(=O)O[C@H](C)[C@@H](NC(C)=O)C(=O)N[C@@H]([C@H](C)c3ccccc3)C(=O)N[C@H](C[C@@H]3C[C@H]3C(F)(F)F)C(=O)N[C@@H]([C@H](C)c3ccccc3)C(=O)N[C@@H]([C@@H](C)CC)C(=O)N2C1 [Compound 58] (Ac-[d(aThr)][Phe(3R-Me)][X1][Phe(3R-Me)]I[X2]; ester 1-C)", 1.73),
]

**Q:** Hello, I am looking for reported IC50 against Leishmania donovani strain MHOM-ET-67/L82 with Leishmania donovani strain MHOM-ET-67/L82 for C/C=C\[C@H]1C[C@H]2C(=O)O[C@H](C)[C@@H](NC(=O)C(F)(F)F)C(=O)N[C@@H]([C@H](C)c3ccccc3)C(=O)N[C@H](C[C@@H]3C[C@H]3C(F)(F)F)C(=O)N[C@@H]([C@H](C)c3ccccc3)C(=O)N[C@@H]([C@@H](C)CC)C(=O)N2C1 [Compound 59] (Tfa-[d(aThr)][Phe(3R-Me)][X1][Phe(3R-Me)]I[X2]; ester 1-C) . Could you help?
**A:** 2.37
